- CONDITION_CONTEXT: 298.15 K; 101.33 kPa; Liquid; Capillary tube (Ostwald / Ubbelohde) method
Attribute: viscosity
VALUE_TYPE: viscosity (mPa·s)

INSERT INTO assay_data (structure, assay_result) VALUES
  ('Cc1ccccc1C', 0.757),
  ('Cc1cccc(C)c1', 0.589),
  ('CC(=O)O', 1.127),
  ('ClC=C(Cl)Cl', 0.582),
  ('Cc1ccc(C)cc1', 0.609);
